B1: MMP1 (parent)
chain: FHGTRQYKFDPKTKRILTLQKANS

- Variants of: B1
- Run Description: protein stability index of a GFP-peptide fusion (GPS, HEK-293T) (PSI 1-6); higher = more stable;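 note: lentivirally expressed fusions sorted by FACS into six bins by GFP to DsRed ratio, PSI derived from sequencing read proportions per bin multiplied by bin number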
- Condition Label: c terminus: a fixed tail appended
Assign class by protein stability index: not lower than 2 means 1; lower than 2 means 0.

# count of solved cases: 2
R5C = 0
H2F = 1

Decide: is the reported value of protein stability index for N23S equal to or greater than 2? 0

Decide: is the reported value of protein stability index for K8E equal to or greater than 2? 1

Decide: is the reported value of protein stability index for R15L equal to or greater than 2? 1

Decide: is the reported value of protein stability index for T13L equal to or greater than 2? 1
